Please provide measured area under the dose-response curve for the entries that follow.
Tested on: SB.mhdgc-1
Assay: area under the dose-response curve of % viability (trapezoidal, 11 doses) (% viability x log10 concentration); higher = less cytotoxic
Conditions: SB.mhdgc-1 (hereditary c.1380delA CDH1 gastric cancer)
Give the value as a plain number.

Query :: Find the measured area under the dose-response curve of CC(C)(C)NC(=O)[C@H]1CC[C@H]2[C@@H]3CC[C@H]4NC(=O)\C=C/[C@]4(C)[C@H]3CC[C@]12C [Finasteride] (top concentration 46.0829 µM) with SB.mhdgc-1 as test system.
Result :: 357

Query :: Find the measured area under the dose-response curve of Cc1cc(Nc2cc(N3CCN(C)CC3)nc(Sc3ccc(NC(=O)C4CC4)cc3)n2)[nH]n1 [Tozasertib] (top concentration 46.0829 µM) with SB.mhdgc-1 as test system.
Result :: 408

Query :: Find the measured area under the dose-response curve of O=C1NC(=O)[C@@H](c2cn3c4c(cccc24)CCC3)[C@@H]1c1c[nH]c2ccccc12 [Tivantinib] (top concentration 46.0829 µM) with SB.mhdgc-1 as test system.
Result :: 369

Recorded values, source the supplement of paper PMC5412046.
